# reported IC50; entries follow
test system: FT282E1 immortalized fallopian tube epithelial cell line; experiment: growth inhibition, synergy studies; format: cell-based; conditions: Epithelial cell; FT282E1; read-out: IC50 (Mean ± SD)

{"columns": ["Compound", "Unit annotation", "Comparison operator", "IC50"],
 "data": [
  ["CC(=O)c1c(C)c2cnc(Nc3ccc(N4CCN(CC5C(=O)O[C@@H]6[C@H]7O[C@]7(C)CCC/C=C(\\C)C[C@@H]56)CC4)cn3)nc2n(C2CCCC2)c1=O (some centres unmarked)", "µM", ">", 40],
  ["CC(=O)c1c(C)c2cnc(Nc3ccc(N4CCN(CC5CC6(OC5=O)C(=O)Nc5ccccc56)CC4)cn3)nc2n(C2CCCC2)c1=O (centres unmarked)", "µM", "=", 14.6]
]}
